Data credit: patent US20250326748A1

- Test system: K562 cells
- Assay method text: Cell viability, Cell Titer Glo 2.0 assay, K562
- Study conditions: 72 hours
Counter-ions that a name gives are not always drawn.
Attribute measured: Effect on Cell Viability, K562

Some compounds with recorded Effect on Cell Viability, K562:
Compound: COc1nc(-c2cc3cn(C)nc3c(C)c2O)nc2ncc(N3C[C@@H](C)N[C@@H](C)C3)cc12
Effect on Cell Viability, K562: B (100-1000 nM)

Compound: COc1nc(-c2cc3cn(C)nc3c(C)c2O)nc2ncc(N3CCC(N(C)C)CC3)cc12
Effect on Cell Viability, K562: B (100-1000 nM)

Compound: Cc1c(O)c(-c2cc(Cl)c3cc(N4C[C@@H](C)NC5(CC5)C4)cnc3n2)cc2cn(C)nc12
Effect on Cell Viability, K562: B (100-1000 nM)

Compound: Cn1cc2cc(-c3cc(Cl)c4cc(N5CCNC(C6CC6)C5)cnc4n3)cc(F)c2n1 (stereo not shown)
Effect on Cell Viability, K562: B (100-1000 nM)

Compound: C[C@@H]1CN(c2cnc3nc(-c4cc5cn(C)nc5cc4O)cc(Cl)c3c2)CC2(CC2)N1
Effect on Cell Viability, K562: B (100-1000 nM)

Compound: C[C@H]1CN(c2cnc3nc(-c4cc(F)c5nn(C)cc5c4)cc(Cl)c3c2)CCN1
Effect on Cell Viability, K562: A (<100 nM)

Compound: Cc1c(O)c(-c2ncc3cc(N4CC[C@@H](N)C4)cnc3n2)cc2cn(C)nc12 [Compound 159, 2,2,2-trifluoroacetate]
Effect on Cell Viability, K562: B (100-1000 nM)

Compound: Cn1cc2cc(-c3cc(Cl)c4cc(N5CCNC6(CC6)C5)cnc4n3)cc(F)c2n1
Effect on Cell Viability, K562: C (1000-9999 nM)

Compound: Cc1cn2cc(-c3cc(Cl)c4cc(N5C[C@H](C)NC6(CC6)C5)cnc4n3)cc(F)c2n1
Effect on Cell Viability, K562: C (1000-9999 nM)

Compound: Cc1cn2nc(-c3cc(Cl)c4cc(N5CCNC6(CC6)C5)cnc4n3)cc(C)c2n1
Effect on Cell Viability, K562: C (1000-9999 nM)

Recall and state the measured Effect on Cell Viability, K562 for C[C@@H]1CN(c2cnc3nc(-c4cc5cn(C)nc5c(F)c4O)cc(C#N)c3c2)C[C@H](C)N1 [Compound 266, hydrochloride] .
A (<100 nM)

// Input: Cc1c(O)c(-c2cc(Cl)c3cc(N4C[C@@H](C)N[C@@H](C)C4)cnc3n2)cc2cn(C)nc12 [Compound 149] . Output its Effect on Cell Viability, K562 only.
B (100-1000 nM)

Give the value of Effect on Cell Viability, K562 reported for the following: CN1CCC[C@H]2CN(c3cnc4nc(-c5cc6cn(C)nc6c(F)c5O)cc(Cl)c4c3)C[C@H]21
B (100-1000 nM)

----------
- System: HTT mRNA
- Assay method text: Splicing RT-qPCR assay, HTT canonical (CJ) and alternative (AJ) junction mRNA
- Format: cell-based, human
- Study conditions: Homo sapiens, canonical junction mRNA, qPCR panel; read-out: HTT CJ (decrease in CJ mRNA levels, IC50)
pIC50: −log10 of the molar value.
# pIC50 per entry

Compound: CNC1CCN(c2cnc3nc(-c4cc5cn(C)nc5cc4O)cc(Cl)c3c2)C1 (stereo not shown)
pIC50: 6.00 to 7.00

Dear colleague, please send me the reported pIC50 for Cc1c(O)c(-c2ccc3nc(N4CCC(N(C)C)CC4)cnc3n2)cc2cn(C)nc12 when you can.
> 7.00

Report pIC50 for CNC1CCN(c2cnc3nc(-c4cc5cn(C)nc5c(C)c4O)cc(Cl)c3c2)C1 (stereo not shown)
> 7.00

Tell me pIC50 reported for CN(c1cnc2nc(-c3cc(F)c4nn(C)cc4c3)ccc2c1)[C@H]1CCNC1
< 5.00

----------
This listing pairs compounds with measured pIC50.
- System: HTT mRNA
- Assay method text: Splicing RT-qPCR assay, HTT canonical (CJ) and alternative (AJ) junction mRNA
- Format: cell-based, human
- Study conditions: Homo sapiens, canonical junction mRNA, qPCR panel; read-out: HTT CJ (decrease in CJ mRNA levels, IC50)
pIC50: −log10 of the molar value. Counter-ions that a name gives are not always drawn.

Compound: CNC1CCN(c2cnc3nc(-c4cc5cn(C)nc5c(C)c4O)cc(OC)c3n2)C1 (stereo not shown)
Observed result: 5.00 to 6.00
//
Compound: Cn1cc2cc(-c3cc(Cl)c4cc(N5CC[C@@H](NCCF)C5)cnc4n3)c(O)cc2n1 [Compound 387, hydrochloride]
Observed result: 6.00 to 7.00
//
Compound: CCN[C@H]1CCN(c2cnc3nc(-c4cc5cn(C)nc5cc4O)cc(Cl)c3c2)C1
Observed result: 6.00 to 7.00
//
Compound: CNC1CCN(c2cnc3nc(-c4cc(F)c5nc(C)cn5c4)ccc3c2)C1 (stereo not shown)
Observed result: 6.00 to 7.00
//
Compound: CN(c1cnc2nc(-c3cc4cn(C)nc4c(F)c3O)cc(Cl)c2c1)[C@@H]1CCNC1
Observed result: 6.00 to 7.00
//
Compound: CC1CN(c2cnc3nc(-c4cc(F)c5nn(C)cc5c4)cc(Cl)c3c2)CCN1 (stereo not shown) [Compound 203, 2,2,2-trifluoroacetate]
Observed result: 6.00 to 7.00

As a next step, examine the compound that follows.
Give pIC50 for Cc1c(O)c(-c2ccc3cc(N4CCC(NCC5CC5)C4)cnc3n2)cc2cn(C)nc12 (stereo in doubt) [Compound 119]
> 7.00

----------
- System: MYB mRNA
- Assay method text: Splicing RT-qPCR assay, MYB canonical (CJ) and alternative (AJ) junction mRNA
- Format: cell-based, human
- Study conditions: Homo sapiens, canonical junction mRNA, qPCR panel; read-out: MYB CJ (decrease in CJ mRNA levels, IC50)
compounds and their reported IC50

Compound: C[C@@H]1CN(c2cnc3nc(-c4cc5cn(C)nc5cc4O)ccc3c2Cl)C[C@H](C)N1
IC50: < 100 nM

Retrieve IC50 measured for Cn1cc2cc(-c3cc(Cl)c4cc(N5CC[C@@H](N6CCC6)C5)cnc4n3)c(O)cc2n1 and print it.
100 to 1000 nM

Let me know recorded IC50 for Cn1cc2cc(-c3ccc4cc(N5CC[C@H](NCC6CC6)C5)cnc4n3)c(O)c(F)c2n1 , thanks.
100 to 1000 nM

Determine its reported IC50: CCN[C@H]1CCN(c2cnc3nc(-c4cc5cn(C)nc5c(C)c4O)ccc3c2)C1
< 100 nM

Hello, please tell me recorded IC50 for this one: Cn1cc2cc(-c3cnc4cc(N5CC[C@H](NC6CC6)C5)ccc4n3)c(O)c(F)c2n1
< 100 nM

Return IC50 for the following compound: Cc1cn2nc(-c3cc(Cl)c4cc(N5C[C@@H](C)N[C@@H](C)C5)cnc4n3)cc(C)c2n1
100 to 1000 nM

Report IC50 for C[C@H]1CN(c2cnc3nc(-c4cc(F)c5nn(C)cc5c4)cc(Cl)c3c2)CCN1
< 100 nM

Kindly indicate its recorded IC50. Item: Cc1cn2nc(-c3ccc4c(Cl)c(N5C[C@@H](C)N[C@@H](C)C5)cnc4n3)cc(C)c2n1
100 to 1000 nM

Identify measured IC50 associated with Cc1c(O)c(-c2cc(-c3ccccn3)c3cc(N4C[C@@H](C)N[C@@H](C)C4)cnc3n2)cc2cn(C)nc12
> 10000 nM

Tell me its IC50 given Cc1c(O)c(-c2ccc3c(C(F)(F)F)c(N4CCNCC4)cnc3n2)cc2cn(C)nc12 as the entry.
100 to 1000 nM

Consider the compound CNC1CCN(c2cnc3nc(-c4cc5cn(C)nc5c(C)c4O)cc(Cl)c3c2)C1 (stereo not shown) . State its measured IC50.
< 100 nM

// Input: CNC1CCN(c2cnc3nc(-c4cc5cn(C)nc5c(C)c4O)cc(Cl)c3n2)C1 (stereo not shown) . Output its IC50 only.
< 100 nM

----------
- System: HTT mRNA
- Assay method text: Splicing RT-qPCR assay, HTT canonical (CJ) and alternative (AJ) junction mRNA
- Format: cell-based, human
- Study conditions: Homo sapiens, canonical junction mRNA, qPCR panel; read-out: HTT CJ (decrease in CJ mRNA levels, IC50)
pIC50: −log10 of the molar value.
We begin with a simple list: items and their reported pIC50.

Compound: Cc1c(N2C[C@@H](C)N[C@@H](C)C2)cnc2nc(-c3cc4cn(C)nc4cc3O)ccc12 [Compound 487]
pIC50: < 5.00

# return pIC50 for CCNC1CCN(c2cnc3nc(-c4cc5cn(C)nc5c(F)c4O)ccc3c2)C1 (centres unmarked) [Compound 106] , test system: HTT mRNA
6.00 to 7.00

Please look at Cc1cn2nc(-c3ccc4cc(N(C)C5CCNCC5)cnc4n3)cc(C)c2n1 [Compound 205] and tell me its recorded pIC50 on HTT mRNA.
< 5.00
